# ASSAY TEXT: Determination of cytostatic effect on MDBK cells (MTS method)
# Type: cell-based, Bovine
# EXPERIMENTAL CONDITIONS: bovine, MDBK cells (exponentially growing), 3 days incubation, 50% cytostatic concentration
ENDPOINT LABEL: CC50 at 3 days

>>> result("CCOC(=O)c1cc2c3n(ccc-2n1)CC(CO)=N3 [Compound 11]")
"87 µg/mL"
>>> result("CCOC(=O)c1cc2c3n(ccc-2n1)CC(C(F)(F)F)=N3 [Compound 7e]")
"> 50 µg/mL"
>>> result("CCOC(=O)c1cc2c3n(ccc-2n1)CC(C)=N3 [Compound 7b]")
"65 µg/mL"
>>> result("CC1=Nc2c3cc(C(=O)O)nc-3ccn2C1 [Compound 15]")
"> 100 µg/mL"
>>> result("CCOC(=O)c1cc2c3n(ccc-2n1)CC(C(OCC)OCC)=N3 [Compound 7h]")
"22 µg/mL"

---

ENDPOINT LABEL: melting point

>>> result("CCOC(=O)c1cc2c3n(ccc-2n1)CC(C)=N3")
"201 to 203 °C"
>>> result("COc1ccc(-c2cc3c4n(ccc-3n2)CC(C)=N4)cc1")
"168 °C"
>>> result("CCOC(=O)c1cc2c3n(ccc-2n1)CC(c1cccc(OC)c1)=N3")
"198 to 200 °C"
>>> result("CCOC(=O)n1c(-c2ccc(OC)cc2)cc2c1ccn1cc(C)nc21")
"158 to 159 °C"
>>> result("CCOC(=O)c1cc2c3n(ccc-2n1)CC(C(F)(F)F)=N3")
"230 to 231 °C"
>>> result("CCOC(=O)n1c(-c2ccc(F)cc2)cc2c1ccn1cc(C)nc21 [Compound 26b]")
"175 °C"
>>> result("CCOC(=O)c1cc2c3n(ccc-2n1)CC(C(C)C)=N3")
"207 to 209 °C"
>>> result("CCOC(=O)c1cc2c3n(ccc-2n1)CC(CCl)=N3")
"270 to 272 °C"
>>> result("CCOC(=O)c1cc2c3n(ccc-2n1)CC(C(OCC)OCC)=N3")
"242 to 244 °C"
>>> result("CCOC(=O)c1cc2c3n(ccc-2n1)CC(CO)=N3")
"227 to 229 °C"
>>> result("CCCCc1cc2c3n(ccc-2n1)CC(C)=N3")
"162 °C"

---

# System: BVDV-1 (strain PE515)
# ASSAY TEXT: Anti-BVDV assay (protection of MDBK cell monolayer from virus-induced cytopathic effect, MTS readout)
# Format: cell-based, Bovine Viral Diarrhea virus
# EXPERIMENTAL CONDITIONS: CC50 (MDBK cells) / EC50 (BVDV)
ENDPOINT LABEL: SI: Selectivity index (ratio of CC50 to EC50)

>>> result("CC1=Nc2c3cc(-c4ccc(F)cc4)nc-3ccn2C1 [Compound 27b]")
"±37"
>>> result("CCOC(=O)c1cc2c3n(ccc-2n1)CC(C(OCC)OCC)=N3")
"±7"
>>> result("CCOC(=O)c1cc2c3n(ccc-2n1)CC(C(C)C)=N3")
"±36"
>>> result("CCOC(=O)c1cc2c3n(ccc-2n1)CC(C)=N3")
"±81"
>>> result("CCOC(=O)c1cc2c3n(ccc-2n1)CC(Br)=N3")
">33"
>>> result("CCOC(=O)c1cc2c3n(ccc-2n1)CC(CO)=N3")
"±10"
>>> result("CCOC(=O)n1c(-c2ccc(F)cc2)cc2c1ccn1cc(C)nc21 [Compound 26b]")
"±6"
>>> result("CCOC(=O)c1cc2c3n(ccc-2n1)CC(C(F)(F)F)=N3")
"±33"

Data provenance is patent US8404707B2.
